Biological target: T1, human GLP-2R (glucagon-like peptide-2 receptor) (human, UniProt O95838 1-553)
T1 sequence (looked up): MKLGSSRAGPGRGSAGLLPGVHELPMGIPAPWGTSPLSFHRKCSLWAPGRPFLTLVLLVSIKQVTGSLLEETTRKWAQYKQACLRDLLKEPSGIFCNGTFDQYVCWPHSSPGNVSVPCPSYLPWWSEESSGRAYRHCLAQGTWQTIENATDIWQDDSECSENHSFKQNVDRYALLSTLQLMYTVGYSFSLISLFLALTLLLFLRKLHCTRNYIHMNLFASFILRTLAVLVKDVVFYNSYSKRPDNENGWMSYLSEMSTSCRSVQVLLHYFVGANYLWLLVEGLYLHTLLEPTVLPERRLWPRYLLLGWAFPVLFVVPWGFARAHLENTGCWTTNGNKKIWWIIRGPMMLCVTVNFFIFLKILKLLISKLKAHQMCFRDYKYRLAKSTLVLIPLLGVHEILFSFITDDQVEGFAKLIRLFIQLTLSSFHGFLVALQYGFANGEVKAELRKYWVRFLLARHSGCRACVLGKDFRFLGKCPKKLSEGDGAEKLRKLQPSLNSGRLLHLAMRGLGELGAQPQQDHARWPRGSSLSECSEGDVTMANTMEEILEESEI
Assay: cell-based or functional assay
*1 amine or outer side, *2 acyl side, *3 side chain or, on linkers, in order; H or OH if unused. Where no end group is shown, it is not given here. Side-chain parts run from the residue outwards. [ ]: non-standard residue; d: D form. The star is where a group is joined. C18 diacid = O=C(O)CCCCCCCCCCCCCCCCC(=O)*; γGlu = O=C(O)[C@H](CCC(=O)[*:2])N[*:1]; AEEA = NCCOCCOCC(=O)O; Aib = CC(C)(N)C(=O)O
measurement-kind: cAMP assay: Efficacy GLP-2R (%)
Please reply with the bare figure in % and do not write the unit itself.

Reference set, count: 4
| binder | measurement-kind | numeric-readout |
| --- | --- | --- |
| HADGTFISDYSTILDK([AEEA-AEEA-γGlu-C18 diacid])LAARDFINWLIQTKGKK [Compound no. 64] | cAMP assay: Efficacy GLP-2R | 75 |
| HXDGTFISDYSTILDNLAARDFINWLIQTKITK (Aib at 2; K(C10) at 33 (C-terminal residue); C-terminus -OH) [Compound no. 63] | cAMP assay: Efficacy GLP-2R | 105 |
| HADGTFISDYST[Aib]LDK([AEEA-AEEA-γGlu-C18 diacid])LAARDFINWLIQTKGKK [Compound no. 62] | cAMP assay: Efficacy GLP-2R | 83 |
| HXDGTFISDYSTXLDNLAARDFINWLIQTKITK (Aib at 2 and 13; K(C10) at 33 (C-terminal residue); C-terminal amide (-NH2)) [Compound no. 65] | cAMP assay: Efficacy GLP-2R | 77 |

Q: What does the record list as cAMP assay: Efficacy GLP-2R for HADGTFISDYSTILDNLAARDFINWLIQTKGKK([AEEA-AEEA-γGlu-C18 diacid]) (also: K33: γGlu-C18-diacid linker 2xAEEA-γGlu) [Compound no. 60] ?
Ans: 90
